molecular target: Sphingosine 1-phosphate receptor 1 (Homo sapiens, UniProt P21453); experiment: Agonist activity at S1P1 receptor by Tango assay
Sequence (P21453 whole entry): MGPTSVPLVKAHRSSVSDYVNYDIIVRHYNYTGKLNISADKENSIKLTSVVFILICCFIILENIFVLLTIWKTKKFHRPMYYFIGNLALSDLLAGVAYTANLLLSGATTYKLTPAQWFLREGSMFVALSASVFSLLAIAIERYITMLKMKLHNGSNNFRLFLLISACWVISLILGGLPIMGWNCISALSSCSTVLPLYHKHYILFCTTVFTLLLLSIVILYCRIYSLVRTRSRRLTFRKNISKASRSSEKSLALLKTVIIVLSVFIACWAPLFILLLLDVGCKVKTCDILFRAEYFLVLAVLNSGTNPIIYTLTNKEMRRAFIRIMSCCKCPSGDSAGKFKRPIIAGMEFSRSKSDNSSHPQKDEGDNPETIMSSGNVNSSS
measured-attribute: pEC50
// returns pEC50 (minus log10 of molar concentration), number only

Solved entries (count: 4):
[[record]]
input_smiles = "CC(C)Oc1ccc(-c2nc(-c3cccc4c(CCC(=O)O)c[nH]c34)no2)cc1Cl"
endpoint_value = 10.90

[[record]]
input_smiles = "Cc1cc(-c2nc(-c3cccc4c(CCC(=O)O)c[nH]c34)no2)cnc1OC(C)C"
endpoint_value = 8.80

[[record]]
input_smiles = "CC(C)Oc1ccc(-c2nc(-c3cccc4c(CCCC(=O)O)c[nH]c34)no2)cc1Cl"
endpoint_value = 9.40

[[record]]
input_smiles = "CNC(=O)CCc1c[nH]c2c(-c3noc(-c4ccc(OC(C)C)c(Cl)c4)n3)cccc12"
endpoint_value = 10.40


Lab note: next compound to report on.
Q: For the compound shown here, CC(C)Oc1ccc(-c2nc(-c3ccc4[nH]c(CCC(=O)O)cc4c3)no2)cc1Cl , give the reported pEC50.
Result: 9.70

* * *

assay: Oral bioavailability in C57BL/6 mouse blood at 2 mg/kg; assay type: ADME, organism-based
measured-attribute: bioavailability (%)
Unit % implied. Number only.

Q: # input compound: CC(C)Oc1ccc(-c2nc(-c3ccc(F)c4c(CCC(=O)O)cn(C)c34)no2)cc1Cl ; wanted: its bioavailability
Result: 100

* * *

experiment: Cmax in C57BL/6 mouse blood at 1 mg/kg, iv and 2 mg/kg, po; type: ADME, organism-based
measured-attribute: Cmax (ng/mL)
Use ng/mL as the unit, but write only the number.

Q: Sample CC(C)Oc1ccc(-c2nc(-c3ccc(F)c4c(CCC(=O)O)cn(C)c34)no2)cc1Cl — what was its Cmax?
Result: 1700

* * *

assay: Ratio of drug level in brain to blood in mouse at 2 mg/kg, ip at 4 hrs; type: ADME, organism-based; parameters: dose 2 mg/kg, route intraperitoneal; details: brain and blood
measured-attribute: Kp at 4 h

Q: Form field: reported Kp at 4 h of CC(C)Oc1ccc(-c2nc(-c3ccc(F)c4c(CCC(=O)O)cn(C)c34)no2)cc1Cl
Result: 0.48

* * *

assay: Volume of distribution at steady state in C57BL/6 mouse blood at 1 mg/kg, iv and 2 mg/kg, po; type: ADME, organism-based; conditions: read-out: Vdss
measured-attribute: Vd (L/kg)
Hi! Could you send only the number? It should be in L/kg, unit omitted.

Q: Look up Vd for this molecule: CC(C)Oc1ccc(-c2nc(-c3ccc(F)c4c(CCC(=O)O)cn(C)c34)no2)cc1Cl
Result: 0.84

* * *

target: Sphingosine 1-phosphate receptor 1 (Homo sapiens, UniProt P21453); test: Agonist activity at S1P1 receptor by Tango assay; format: functional
The molecules listed here are annotated with their EC50.

[[record]]
input_smiles = "O=C(O)CCc1c[nH]c2c(-c3noc(-c4ccc5c(c4)OCCO5)n3)cccc12"
endpoint_value = "> 3.16 µM"

[[record]]
input_smiles = "O=C(O)CCc1c[nH]c2c(-c3noc(C4CCOCC4)n3)cccc12"
endpoint_value = "> 10 µM"

[[record]]
input_smiles = "CC(C)Oc1ccc(-c2nc(-c3cc(F)cc4c(CCC(=O)O)cn(C)c34)no2)cc1Cl"
endpoint_value = "< 1e-05 µM"

[[record]]
input_smiles = "O=C(O)CCc1c[nH]c2c(-c3noc(C4CCCCC4)n3)cccc12"
endpoint_value = "> 10 µM"


Q: Bench note: what EC50 did CC(C)Oc1ccc(-c2nc(-c3ccc(F)c4c(CCC(=O)O)cn(C)c34)no2)cc1Cl show?
Result: < 1e-05 µM
